- measurement.target: proteasome in Molt-4 cells (human leukemia) (Homo sapiens, UniProt P20618+P28074)
- Sequence (P28074 60-263): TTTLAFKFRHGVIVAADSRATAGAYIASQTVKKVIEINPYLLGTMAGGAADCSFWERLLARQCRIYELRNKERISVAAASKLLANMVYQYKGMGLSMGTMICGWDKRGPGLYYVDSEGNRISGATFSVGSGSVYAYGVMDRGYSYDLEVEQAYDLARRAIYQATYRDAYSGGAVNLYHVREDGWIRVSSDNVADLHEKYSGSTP
- Sequence (P20618 29-241): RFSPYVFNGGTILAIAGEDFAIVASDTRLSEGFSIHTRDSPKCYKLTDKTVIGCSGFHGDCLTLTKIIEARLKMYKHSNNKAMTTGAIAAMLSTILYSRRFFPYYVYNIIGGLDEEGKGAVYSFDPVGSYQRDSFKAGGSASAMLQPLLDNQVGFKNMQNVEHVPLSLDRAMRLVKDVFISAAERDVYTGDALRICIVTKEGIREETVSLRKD
- Type: cell-based
- condition.parameters: assay of Example E, inhibition of MOLT4; read-out: MOLT4 (EC50)
Assignment: determine reported EC50 for the given compounds.

Consider the following illustrative entries.
[[record]]
compound = "CC(C)C[C@H](NC(=O)[C@H](CCCNC(=N)N[N+](=O)[O-])NC(=O)c1ccc2ccccc2c1)B1O[C@@H]2C[C@@H]3C[C@@H](C3(C)C)[C@]2(C)O1"
reported_value = "< 200 nM"

[[record]]
compound = "CCCCCCCCCC(=O)N[C@@H](CNC(=O)c1cccnc1)C(=O)N[C@@H](CC(C)C)B(O)O"
reported_value = "< 200 nM"

[[record]]
compound = "CC(C)C[C@H](NC(=O)[C@H](CCCNC(=N)N[N+](=O)[O-])NC(=O)C1(c2ccccc2)CCCC1)B(O)O"
reported_value = "2000 to 10000 nM"

[[record]]
compound = "CC(C)C[C@H](NC(=O)[C@@H](NC(=O)c1ccc2cc(Br)ccc2c1)[C@@H](C)O)B(O)O"
reported_value = "< 200 nM"

[[record]]
compound = "CC(C)C[C@H](NC(=O)[C@H](CCCNC(=N)N[N+](=O)[O-])NC(=O)CC1CCCCCC1)B1O[C@@H]2C[C@@H]3C[C@@H](C3(C)C)[C@]2(C)O1"
reported_value = "< 200 nM"


Parameters: items (list). Returns: EC50 for each item.
1. CCCCc1ccc(C(=O)N[C@@H](CCCNC(=N)N[N+](=O)[O-])C(=O)N[C@@H](CC(C)C)B2O[C@@H]3C[C@@H]4C[C@@H](C4(C)C)[C@]3(C)O2)cc1
2. CC(C)C[C@H](NC(=O)[C@@H](NC(=O)c1ccc(-c2ccccc2)cc1)[C@@H](C)O)B(O)O
3. CCCCCCCCCC(=O)N[C@@H](CCCNC(=N)N[N+](=O)[O-])C(=O)N[C@@H](CC(C)C)B1O[C@@H]2C[C@@H]3C[C@@H](C3(C)C)[C@]2(C)O1

a:
1: < 200 nM; 2: < 200 nM; 3: < 200 nM

---

- measurement.target: proteasome in Molt-4 cells (human leukemia) (Homo sapiens, UniProt P20618+P28074)
- Type: cell-based
- condition.parameters: assay of Example E, inhibition of MOLT4; read-out: MOLT4 (EC50)
- Method: Cellular Assay for Chymotrypsin-like activity of Proteasome in Molt-4 Cell Line The chymotrypsin-like activity of proteasome in Molt-4 cells (human leukemia) was assayed according to the following procedure. […] The concentration of free AFC was monitored every 1.5 min for 30 min ([…]) on a Polastar Optima, BMG Labtechnologies microplate reader, using an excitation wavelength of 390 nm and emission wavelength of 520 nm. […]
measure: EC50

Consider the following illustrative entries.
[[record]]
mol = "CC(C)C[C@H](NC(=O)[C@@H](NC(=O)c1cnccn1)[C@@H](C)O)B(O)O"
reported_value = "0.2 to 2 µM"

[[record]]
mol = "COc1ccccc1/C=C/C(=O)N[C@@H](CCCNC(=N)N[N+](=O)[O-])C(=O)N[C@@H](CC(C)C)B(O)O"
reported_value = "2 to 10 µM"

[[record]]
mol = "CCCCc1ccc(C(=O)N[C@@H](CNC(=O)c2ccc(S(N)(=O)=O)cc2)C(=O)N[C@@H](CC(C)C)B2O[C@@H]3C[C@@H]4C[C@@H](C4(C)C)[C@]3(C)O2)cc1"
reported_value = "< 0.2 µM"


Parameters: items (list). Returns: EC50 for each item.
1. CC(C)C[C@H](NC(=O)[C@@H](NS(=O)(=O)c1ccc2ccccc2c1)[C@@H](C)O)B1O[C@@H]2C[C@@H]3C[C@@H](C3(C)C)[C@]2(C)O1
2. Cc1cc(C(=O)N[C@@H](CCCNC(=N)N[N+](=O)[O-])C(=O)N[C@@H](CC(C)C)B(O)O)ccc1F
3. Cc1ccc(F)c(C(=O)N[C@@H](CCCNC(=N)N[N+](=O)[O-])C(=O)N[C@@H](CC(C)C)B(O)O)c1
4. CC(C)C[C@H](NC(=O)[C@H](CCCNC(=N)N[N+](=O)[O-])NC(=O)c1ccc2ccccc2n1)B(O)O
5. CC(C)C[C@H](NC(=O)[C@H](CCCNC(=N)N[N+](=O)[O-])NC(=O)CCCCCNS(=O)(=O)c1ccccc1)B1O[C@@H]2C[C@@H]3C[C@@H](C3(C)C)[C@]2(C)O1

a:
1: < 0.2 µM; 2: > 10 µM; 3: 2 to 10 µM; 4: 2 to 10 µM; 5: 0.2 to 2 µM

Parameters: items (list). Returns: EC50 for each item.
1. CCCCCCCC(=O)N[C@@H](CCCNC(=N)N[N+](=O)[O-])C(=O)N[C@@H](CC(C)C)B(O)O
2. CCc1ccc(OCC(=O)N[C@@H](CCCNC(=N)N[N+](=O)[O-])C(=O)N[C@@H](CC(C)C)B2O[C@@H]3C[C@@H]4C[C@@H](C4(C)C)[C@]3(C)O2)cc1
3. CC(C)C[C@H](NC(=O)[C@H](CCCNC(=N)N[N+](=O)[O-])NC(=O)C1CC1)B(O)O
4. CSCCC(=O)N[C@@H](CCCNC(=N)N[N+](=O)[O-])C(=O)N[C@@H](CC(C)C)B1O[C@@H]2C[C@@H]3C[C@@H](C3(C)C)[C@]2(C)O1
5. CC(C)C[C@H](NC(=O)[C@H](CCCNC(=N)N[N+](=O)[O-])NC(=O)C1CCCCC1)B(O)O
6. CC(C)C[C@H](NC(=O)[C@H](CCCNC(=N)N[N+](=O)[O-])NC(=O)CCCCCCCCC#N)B1O[C@@H]2C[C@@H]3C[C@@H](C3(C)C)[C@]2(C)O1
7. CCCCCCCCCC(=O)N[C@@H](CCCNC(=N)N[N+](=O)[O-])C(=O)N[C@@H](CC(C)C)B(O)O

a:
1: 0.2 to 2 µM; 2: < 0.2 µM; 3: > 10 µM; 4: 0.2 to 2 µM; 5: > 10 µM; 6: < 0.2 µM; 7: < 0.2 µM

---

- measurement.target: 20S Human Erythrocyte Proteasome (HEP) (Homo sapiens, UniProt P20618+P28074)
- Construct: 20S Human Erythrocyte Proteasome (HEP), purchased from Immatics Biotechnologies Inc
- test.method.notes: Chymotrypsin-like activity of 20S Human Erythrocyte Proteasome (HEP), IC50 determination
- condition.parameters: assay of Example C, inhibition of HEP
- Procedure: Assay for Chymotrypsin-like Activity of 20S Human Erythrocyte Proteasome (HEP) Proteasome chymotrypsin-like activity of compounds of the invention was assayed according to the following procedure. […] Inhibition of the chymotrypsin-like activity of HEP and of bovine α-chymotrypsin was determined by incubating the enzyme with various concentrations of putative inhibitors for 15 minutes at 37° C. […]
measure: IC50

[[record]]
compound = "CCCCCCCCCCCNC(=O)N[C@@H](CCCNC(=N)N[N+](=O)[O-])C(=O)N[C@@H](CC(C)C)B1O[C@@H]2C[C@@H]3C[C@@H](C3(C)C)[C@]2(C)O1 [D.6.5]"
reported_value = "< 10 nM"

[[record]]
compound = "CCCCc1ccc(C(=O)N[C@@H](CNC(=O)c2cccnc2)C(=O)N[C@@H](CC(C)C)B2O[C@@H]3C[C@@H]4C[C@@H](C4(C)C)[C@]3(C)O2)cc1 [D.24.15]"
reported_value = "< 10 nM"

[[record]]
compound = "CCCCCC(=O)NC[C@H](NC(=O)c1ccc(CCCC)cc1)C(=O)N[C@@H](CC(C)C)B(O)O [E.5.10]"
reported_value = "< 10 nM"

[[record]]
compound = "Cc1cccc(/C=C/C(=O)N[C@@H](CCCNC(=N)N[N+](=O)[O-])C(=O)N[C@@H](CC(C)C)B(O)O)c1 [E.2.33]"
reported_value = "< 10 nM"

[[record]]
compound = "Cc1cccc(/C=C/C(=O)N[C@@H](CCCNC(=N)N[N+](=O)[O-])C(=O)N[C@@H](CC(C)C)B2O[C@@H]3C[C@@H]4C[C@@H](C4(C)C)[C@]3(C)O2)c1 [D.3.57]"
reported_value = "< 10 nM"


q: # IC50 lookup, item CCCCc1ccc(C(=O)N[C@@H](CNC(=O)c2ccc(-c3ccccc3)cc2)C(=O)N[C@@H](CC(C)C)B(O)O)cc1 [E.5.33]
a: < 10 nM

---

- measurement.target: proteasome in Molt-4 cells (human leukemia) (Homo sapiens, UniProt P20618+P28074)
- Format: cell-based
- condition.parameters: assay of Example E, inhibition of MOLT4; read-out: MOLT4 (EC50)
Assignment: determine reported EC50 for the given compounds.

[[record]]
mol = "CCCCCCCCCC(=O)N[C@@H](CNS(=O)(=O)c1ccc(F)cc1)C(=O)N[C@@H](CC(C)C)B(O)O"
measure = "EC50"
reported_value = "< 0.2 µM"

[[record]]
mol = "CC(C)=CCC[C@@H](C)CC(=O)N[C@@H](CCCNC(=N)N[N+](=O)[O-])C(=O)N[C@@H](CC(C)C)B(O)O"
measure = "EC50"
reported_value = "2 to 10 µM"

[[record]]
mol = "CC(C)C[C@H](NC(=O)[C@H](CCCNC(=N)N[N+](=O)[O-])NC(=O)CCCCCCCc1ccccc1)B(O)O"
measure = "EC50"
reported_value = "0.2 to 2 µM"

[[record]]
mol = "CC(C)CC(=O)N[C@@H](CCCNC(=N)N[N+](=O)[O-])C(=O)N[C@@H](CC(C)C)B(O)O"
measure = "EC50"
reported_value = "> 10 µM"

[[record]]
mol = "CCCCCCCCCC(=O)N[C@H](C(=O)N[C@@H](CC(C)C)B(O)O)[C@@H](C)O"
measure = "EC50"
reported_value = "< 0.2 µM"

[[record]]
mol = "CC(C)C[C@H](NC(=O)[C@H](CCCNC(=N)N[N+](=O)[O-])NC(=O)CSc1ccc2ccccc2c1)B1O[C@@H]2C[C@@H]3C[C@@H](C3(C)C)[C@]2(C)O1"
measure = "EC50"
reported_value = "< 0.2 µM"


Now consider the entry below.
q: What measured EC50 is associated with "CC(C)C[C@H](NC(=O)[C@H](CCCNC(=N)N[N+](=O)[O-])NC(=O)Cc1ccc(Br)cc1)B(O)O" on proteasome in Molt-4 cells (human leukemia) (Homo sapiens, UniProt P20618+P28074)?
a: 2 to 10 µM
